Below, each entry is listed with its recorded AST.
Species on record: Rattus norvegicus
run_description: Open TG-GATES - Regimen: Daily Repeat
Assay type: toxicity, organism-based, Sprague-Dawley
Design: regimen Daily Repeat, gender Male, age 6 weeks
measurement_parameters: in vivo, po, 1000 mg/kg, […], tissue Plasma, route gavage, dose level High, time 28 day
observable: AST (IU/L)

compound=O=C(O)c1ccccc1Nc1ccccc1 readout_number=61.5
compound="CC(S)C(=O)NCC(=O)O (centres undefined)" readout_number=71.4
compound=CC(=O)[C@@]1(O)CC[C@H]2[C@@H]3C=C(Cl)C4=CC(=O)CC[C@]4(C)[C@H]3CC[C@@]21C readout_number=70.8
compound="CCCCNC(=O)NS(=O)(=O)c1ccc(C)cc1 [TOLBUTAMIDE]" readout_number=59

* * *

Organism: Rattus norvegicus
run_description: Open TG-GATES - Regimen: Daily Repeat
Format: toxicity, organism-based, Sprague-Dawley
Set-up: regimen Daily Repeat, gender Male, age 6 weeks
measurement_parameters: in vivo, po, 300 mg/kg, 72 h, tissue Plasma, route gavage, dose level Middle, time 3 day
observable: Na (meq/L)

compound="CC(S)C(=O)NCC(=O)O (centres undefined)" readout_number=140.4
compound="CCCCNC(=O)NS(=O)(=O)c1ccc(C)cc1 [TOLBUTAMIDE]" readout_number=142.4
compound=CC(=O)[C@@]1(O)CC[C@H]2[C@@H]3C=C(Cl)C4=CC(=O)CC[C@]4(C)[C@H]3CC[C@@]21C readout_number=141.4
compound=O=C(O)c1ccccc1Nc1ccccc1 readout_number=142.8

* * *

Known K of a selection of molecules
Species on record: Rattus norvegicus
run_description: Open TG-GATES - Regimen: Daily Repeat
Type: toxicity, organism-based, Sprague-Dawley
Parameters: regimen Daily Repeat, gender Male, age 6 weeks
measurement_parameters: in vivo, po, 0 mg/kg, […], tissue Plasma, route gavage, dose level Control, time 14 day
observable: K (meq/L)

molecule=COc1ccc([C@@H]2Sc3ccccc3N(CCN(C)C)C(=O)[C@@H]2OC(C)=O)cc1 observable=K unit_name=meq/L readout_number=4.1
molecule=Nc1ccc(Cc2ccc(N)cc2)cc1 observable=K unit_name=meq/L readout_number=3.9
molecule="CCCCNC(=O)NS(=O)(=O)c1ccc(C)cc1 [TOLBUTAMIDE]" observable=K unit_name=meq/L readout_number=3.9
molecule=CCCCC1C(=O)N(c2ccccc2)N(c2ccccc2)C1=O observable=K unit_name=meq/L readout_number=4.7
molecule=CC(=O)[C@@]1(O)CC[C@H]2[C@@H]3C=C(Cl)C4=CC(=O)CC[C@]4(C)[C@H]3CC[C@@]21C observable=K unit_name=meq/L readout_number=4

* * *

Organism: Rattus norvegicus
run_description: Open TG-GATES - Regimen: Single
Type: toxicity, organism-based, Sprague-Dawley
Parameters: regimen Single, gender Male, age 6 weeks
measurement_parameters: in vivo, po, 0 mg/kg, 3 h, tissue Plasma, route gavage, dose level Control
observable: RALB

compound="CCCCNC(=O)NS(=O)(=O)c1ccc(C)cc1 [TOLBUTAMIDE]" result="2.5 g/dL"
compound=CC(=O)[C@@]1(O)CC[C@H]2[C@@H]3C=C(Cl)C4=CC(=O)CC[C@]4(C)[C@H]3CC[C@@]21C result="3 g/dL"
compound=C=C[C@H]1C[N@@]2CC[C@H]1C[C@@H]2[C@@H](O)c1ccnc2ccc(OC)cc12 result="3 g/dL"
compound="CC(S)C(=O)NCC(=O)O (centres undefined)" result="2.9 g/dL"
compound=COc1ccc([C@@H]2Sc3ccccc3N(CCN(C)C)C(=O)[C@@H]2OC(C)=O)cc1 result="2.5 g/dL"
compound=CCN(CC)C(=S)SSC(=S)N(CC)CC result="3 g/dL"
compound=CN(C/C=C/C#CC(C)(C)C)Cc1cccc2ccccc12 result="3.4 g/dL"
compound="NS(=O)(=O)c1cc(C(=O)O)c(NCc2ccco2)cc1Cl [FUROSEMIDE]" result="2.5 g/dL"
compound=Nc1ccc(Cc2ccc(N)cc2)cc1 result="2.5 g/dL"

Data provenance is ChEMBL document CHEMBL3885861.
